Tested on: Msh3
TEST_NAME: Yeast two hybrid (Y2H) analysis of PCNA-partner interaction
Type: binding
Set-up: key: ++: major increase in growth; +: moderate increase in growth; similar growth as the WT PCNA-expressing cells; -: minor decrease in growth; --: moderate decrease in growth; ---: major decrease in growth
MEASUREMENT_CONTEXT: spotting onto selective agar plates; PCNA fused to AD, partner to BD
Description: Y2H analysis was performed using the Yeast Two Hybrid Phagemid vector kit (Stratagene), following the manufacturer's instructions. […] For quantitative Y2H, the generation time of the indicated mutants and their respective partners were calculated from their growth curves in liquid SC-Leu-Trp-His media. […] O.D600 measurements of the cultures were taken at the indicated time; the generation time (τ) was calculated from the growth curves according to the equation ODt = OD0×2^t/τ. […]
REPORTED_PROPERTY: Y2H growth relative to WT PCNA-expressing strain: Msh3

MOLECULE	VAL
pol30-Pol32E5: PCNA mutant evolved for Pol32, IDCL sequence DADNDFLKISEL (protein, left off: Gal4 activation domain, end not stated, kept) MLEAKFEEASLFKRIIDGFKDCVQLVNFQCKEDGIIAQAVDDSRVLLVSLEIGVEAFQEYRCDHPVTLGMDLTSLSKILRCGNNTDTLTLIADNTPDSIILLFEDTKKDRIAEYSLKLMDADNDFLKISELQYDSTLSLPSSEFSKIVRDLSQLSDSINIMITKETIKFVADGDIGSGSVIIKPFVDMEHPETSIKLEMDQPVDLTFGAKYLLDIIKGSSLSDRVGIRLSSEAPALFQFDLKSGFLQFFLAPKFNDEE	WT
pol30-Rad27E6: PCNA mutant evolved for Rad27, IDCL sequence DGDYDILKIREL (protein, left off: Gal4 activation domain, end not stated, kept) MLEAKFEEASLFKRIIDGFKDCVQLVNFQCKEDGIIAQAVDDSRVLLVSLEIGVEAFQEYRCDHPVTLGMDLTSLSKILRCGNNTDTLTLIADNTPDSIILLFEDTKKDRIAEYSLKLMDGDYDILKIRELQYDSTLSLPSSEFSKIVRDLSQLSDSINIMITKETIKFVADGDIGSGSVIIKPFVDMEHPETSIKLEMDQPVDLTFGAKYLLDIIKGSSLSDRVGIRLSSEAPALFQFDLKSGFLQFFLAPKFNDEE	WT
